target: Cyclin-dependent kinase 5/CDK5 activator 1 (Homo sapiens) (UniProt Q00535+Q15078); experiment: Inhibition of CDK5/p25 assessed as residual activity at 1 uM relative to control; assay type: protein-complex assay
Sequence (Q00535 whole entry): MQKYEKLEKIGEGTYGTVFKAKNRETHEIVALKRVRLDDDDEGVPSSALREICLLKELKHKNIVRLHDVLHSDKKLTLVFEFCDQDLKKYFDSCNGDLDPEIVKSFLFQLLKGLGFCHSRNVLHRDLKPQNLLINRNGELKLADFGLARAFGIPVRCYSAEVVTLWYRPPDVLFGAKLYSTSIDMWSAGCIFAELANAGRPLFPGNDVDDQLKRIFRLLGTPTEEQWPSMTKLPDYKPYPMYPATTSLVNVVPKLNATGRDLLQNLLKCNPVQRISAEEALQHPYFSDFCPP
Sequence (Q15078 99-307 partner limits assumed): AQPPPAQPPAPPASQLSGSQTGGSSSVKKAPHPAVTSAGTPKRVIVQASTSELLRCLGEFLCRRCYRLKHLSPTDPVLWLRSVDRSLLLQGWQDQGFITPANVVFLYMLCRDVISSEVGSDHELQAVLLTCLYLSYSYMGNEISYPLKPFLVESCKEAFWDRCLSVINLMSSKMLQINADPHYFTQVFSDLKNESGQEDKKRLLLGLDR
Property Measured: Activity (%)

- Compound: "CC(C)C(=O)Nc1ncnc2[nH]c(-c3ccccc3)nc12"
  Measurement: 99
- Compound: "C(=C\\c1nc2c(NCCN3CCOCC3)ncnc2[nH]1)/c1ccccc1"
  Measurement: 101
- Compound: "Cn1c(-c2cccc(F)c2)nc2c(N3CCCC3)ncnc21"
  Measurement: 100
- Compound: "Cn1c(-c2ccccc2)nc2c(NCc3cccnc3)ncnc21"
  Measurement: 99
- Compound: "Cn1c(-c2cccc(F)c2)nc2c(NCc3ccccc3)ncnc21"
  Measurement: 96
- Compound: "CCCCC(=O)Nc1ncnc2[nH]c(/C=C/c3ccccc3)nc12"
  Measurement: 103
- Compound: "O=C(Nc1ncnc2[nH]c(-c3cccc(Cl)c3)nc12)c1ccccc1"
  Measurement: 102
- Compound: "COc1ccc(C(=O)Nc2ncnc3[nH]c(-c4cccc(Cl)c4)nc23)cc1"
  Measurement: 102
- Compound: "Cn1c(-c2ccc([N+](=O)[O-])cc2)nc2ncnc(N3CCCC3)c21"
  Measurement: 101
- Compound: "O=C(Nc1ncnc2[nH]c(-c3ccccc3)nc12)C1CCCN1 (stereo not given)"
  Measurement: 93
- Compound: "c1cncc(CNc2ncnc3[nH]c(-c4cccnc4)nc23)c1"
  Measurement: 102
- Compound: "N#Cc1cccc(-c2nc3c(NC(=O)C4CC4)ncnc3[nH]2)c1"
  Measurement: 103
- Compound: "Cn1c(-c2ccc(Cl)cc2)nc2ncnc(N3CCCC3)c21"
  Measurement: 97
- Compound: "c1ccc(-c2nc3c(NCc4cccnc4)ncnc3[nH]2)cc1"
  Measurement: 84
- Compound: "CCCCC(=O)Nc1ncnc2[nH]c(-c3ccccc3)nc12"
  Measurement: 103
- Compound: "O=C(Nc1ncnc2[nH]c(-c3ccccc3)nc12)C1CC1"
  Measurement: 96
- Compound: "c1cncc(-c2nc3c(N4CCCC4)ncnc3[nH]2)c1"
  Measurement: 100
- Compound: "O=C(Nc1ncnc2[nH]c(/C=C/c3ccccc3)nc12)c1ccccc1"
  Measurement: 104
- Compound: "c1cncc(-c2nc3c(OCC4CCCCC4)ncnc3[nH]2)c1"
  Measurement: 101
- Compound: "CC(C)CC(=O)Nc1ncnc2[nH]c(-c3ccccc3)nc12"
  Measurement: 102
- Compound: "CCCCC(=O)Nc1ncnc2[nH]c(-c3cccc(C#N)c3)nc12"
  Measurement: 101
- Compound: "COc1ccc(CNc2ncnc3nc(-c4ccc(Cl)cc4)n(C)c23)cc1"
  Measurement: 105
- Compound: "COc1ccc(C(=O)Nc2ncnc3[nH]c(/C=C/c4ccccc4)nc23)cc1"
  Measurement: 104
- Compound: "COc1ccc(CNc2ncnc3c2nc(-c2ccccc2)n3C)cc1"
  Measurement: 100
- Compound: "CN(C)c1ncnc2[nH]c(-c3ccccc3)nc12"
  Measurement: 85
- Compound: "COc1ccc(-c2nc3ncnc(NCc4ccccc4)c3n2C)cc1"
  Measurement: 102
- Compound: "O=C(Nc1ncnc2[nH]c(-c3ccc4ccccc4c3)nc12)c1ccccc1"
  Measurement: 100
- Compound: "CC(=O)Nc1ncnc2[nH]c(-c3ccc4ccccc4c3)nc12"
  Measurement: 98
- Compound: "COc1ccc(C(=O)Nc2ncnc3[nH]c(-c4cccnc4)nc23)cc1"
  Measurement: 107
- Compound: "Cn1c(-c2ccc([N+](=O)[O-])cc2)nc2ncnc(NCc3ccccc3)c21"
  Measurement: 101

Values were extracted from ChEMBL document CHEMBL1208672.
